experimentalTarget: Larg1 (Lpg0081) (Legionella pneumophila, UniProt Q5ZZD0)
Sequence (Q5ZZD0 1-441 limits assumed): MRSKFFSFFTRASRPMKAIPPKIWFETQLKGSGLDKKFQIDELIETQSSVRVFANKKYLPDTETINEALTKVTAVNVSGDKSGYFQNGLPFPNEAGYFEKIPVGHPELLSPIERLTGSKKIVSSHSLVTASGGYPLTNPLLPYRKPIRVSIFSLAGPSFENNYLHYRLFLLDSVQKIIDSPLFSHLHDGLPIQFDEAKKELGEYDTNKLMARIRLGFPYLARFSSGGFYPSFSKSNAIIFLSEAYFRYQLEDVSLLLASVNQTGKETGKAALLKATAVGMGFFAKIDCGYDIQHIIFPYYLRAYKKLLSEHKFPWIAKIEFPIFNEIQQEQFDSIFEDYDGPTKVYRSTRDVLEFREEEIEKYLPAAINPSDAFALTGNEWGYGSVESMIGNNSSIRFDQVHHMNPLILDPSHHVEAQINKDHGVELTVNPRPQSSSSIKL
measurementLabel: Kd (µM)
Kindly answer with a numeric value in µM, unit omitted.

Which Kd is reported with Larg1 (Lpg0081) (Legionella pneumophila, UniProt Q5ZZD0) for this entry: Nc1ncnc2c1ncn2[C@@H]1O[C@H](COP(=O)(O)OP(=O)(O)OC[C@H]2OC(O)[C@H](O)[C@@H]2O)[C@@H](O)[C@H]1O (stereo partly shown) ?
3.87
